Values from PubChem BioAssay AID1777

Target: Kappa-type opioid receptor (Homo sapiens) (UniProt P41145)
Sequence (P41145 whole entry, looked up): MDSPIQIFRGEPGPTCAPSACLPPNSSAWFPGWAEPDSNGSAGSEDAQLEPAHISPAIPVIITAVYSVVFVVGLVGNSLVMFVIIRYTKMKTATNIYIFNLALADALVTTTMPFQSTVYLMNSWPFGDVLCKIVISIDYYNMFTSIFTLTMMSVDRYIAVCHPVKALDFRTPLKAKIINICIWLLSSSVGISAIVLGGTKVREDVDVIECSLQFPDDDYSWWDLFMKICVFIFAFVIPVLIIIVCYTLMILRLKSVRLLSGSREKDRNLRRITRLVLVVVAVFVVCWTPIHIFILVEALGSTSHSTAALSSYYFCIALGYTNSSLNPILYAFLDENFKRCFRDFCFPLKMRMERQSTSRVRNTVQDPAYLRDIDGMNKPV
Assay: KOR agonists, beta-arrestin recruitment, primary screen, cell-based, luminescence, uHTS (AID 1777)
Conditions: at 10 µM, stronger effect = higher value
Among all 280,000 compounds or so, about 50 (0.02%) were called active. The list comes from a sample in which actives are over-represented; it also holds close analogues and randomly drawn compounds. Results with a measured potency or affinity are listed apart.
MEASURED_QUANTITY: activation (%)
Provide the reading as a plain figure in %.

Here are 9 compounds together with their reported answers.
- COMPOUND: "O=C(NC1CCCCC1)c1ccc(S(=O)(=O)N2CCOCC2)cc1"
  activation / %: 2
- COMPOUND: "CC(C)N1CCc2c(sc(NC(=O)c3ccc4ccccc4c3)c2C(N)=O)C1"
  activation / %: -0.3
- COMPOUND: "Cc1c(NC(=O)c2cccc(S(=O)(=O)N3CCOCC3)c2)c(=O)n(-c2ccccc2)n1C"
  activation / %: -7.9
- COMPOUND: "N#C/C(=C\\c1ccc(-c2ccccc2Cl)o1)C(=O)Nc1nc2ccccc2s1"
  activation / %: -1.8
- COMPOUND: "CC1=CC(C)(C)N(C)C(=O)N1c1ccc(Cl)cc1"
  activation / %: 7.6
- COMPOUND: "COc1ccc(C[C@H]2CN3C(=NC[C@H]3C)N2CCNC(=O)c2ccc(C)c(Br)c2)cc1"
  activation / %: 12.5
- COMPOUND: "Cc1cccc(C(C)C)c1NC(=O)c1ccc(COc2ccc3c(C)cc(=O)oc3c2)cc1"
  activation / %: 3.9
- COMPOUND: "CCN1CCc2c(sc(NC(=O)c3cc4ccccc4cc3OC)c2C(N)=O)C1"
  activation / %: 0.1
- COMPOUND: "CC1(C)Cc2c(cnn2-c2cccc(F)c2)C(NC(=O)c2csnn2)C1 (stereo not given)"
  activation / %: 5.1

# context switch: different compound, same activation
Which activation value belongs to "COc1ccccc1CN(Cc1cc2cc(C)ccc2[nH]c1=O)Cc1nnnn1Cc1ccco1" ?
-3.4

* * *

// reported activation for each item listed
Molecular target: Kappa-type opioid receptor (Homo sapiens) (UniProt P41145)
Experiment: KOR agonists, beta-arrestin recruitment, primary screen, cell-based, luminescence, uHTS (AID 1777)
Conditions: at 10 µM, stronger effect = higher value
Screen size: about 280,000 compounds; about 50 (0.02%) were called active. The sample as a whole holds a higher share of actives than the screen did. Potency and affinity values are given separately.
Value expressed in %; do not type the unit.

Look over these answered cases.
- MOLECULE: "CC(=O)Nc1nc(SCC(=O)NCC2CCCO2)[nH]c(=O)c1NC(=O)c1cccs1 (stereo not given)"
  TARGET_DESC: "Kappa-type opioid receptor (Homo sapiens) (UniProt P41145)"
  activation / %: -4.2
- MOLECULE: "Cc1cc(=O)cc(C)n1-c1ccc(Cl)cc1"
  TARGET_DESC: "Kappa-type opioid receptor (Homo sapiens) (UniProt P41145)"
  activation / %: 1.5
- MOLECULE: "CCCCN(Cc1cc2cc(OC)ccc2[nH]c1=O)C(=O)c1ccccn1"
  TARGET_DESC: "Kappa-type opioid receptor (Homo sapiens) (UniProt P41145)"
  activation / %: 40.3
- MOLECULE: "CC(C)OCCCNC(=O)C(Cc1ccccc1)NS(=O)(=O)c1ccc2c(c1)CCC(=O)N2 (stereo not given)"
  TARGET_DESC: "Kappa-type opioid receptor (Homo sapiens) (UniProt P41145)"
  activation / %: 0.5
- MOLECULE: "Cc1ccc2[nH]c(=O)c(CN(C)C(=O)c3ccccn3)cc2c1"
  TARGET_DESC: "Kappa-type opioid receptor (Homo sapiens) (UniProt P41145)"
  activation / %: -3.6
- MOLECULE: "Cc1ccc(O)c(C(=O)c2cnn(C(=O)COc3ccc(Cl)cc3)c2)c1"
  TARGET_DESC: "Kappa-type opioid receptor (Homo sapiens) (UniProt P41145)"
  activation / %: 0.1
- MOLECULE: "O=C1CN(CC(=O)N2CCCCC2)c2ccccc2O1"
  TARGET_DESC: "Kappa-type opioid receptor (Homo sapiens) (UniProt P41145)"
  activation / %: -1.4
- MOLECULE: "CCCN(Cc1cc2cc(C)ccc2[nH]c1=O)C(=O)c1ccccn1"
  TARGET_DESC: "Kappa-type opioid receptor (Homo sapiens) (UniProt P41145)"
  activation / %: 9.9

Form: Entry = Cc1ccc(N2C(=O)C(c3c(C)[nH]n(-c4ccccc4)c3=O)(C(F)(F)F)C3=C2CC(C)(C)CC3=O)cc1 (stereo not given) | System = Kappa-type opioid receptor (Homo sapiens) (UniProt P41145) | activation = ____
-2.8

Requested read-out activation, target or system Kappa-type opioid receptor (Homo sapiens) (UniProt P41145), entry COC(=O)C1=CN(CC2CCCO2)C=C(C(=O)OC)C1c1ccsc1 (stereo not given)
-4.3
